# Tested on: WM115
# experiment: apoptotic fraction of cells (caspase-3 NucView488 positive); higher = more apoptosis
# assay.setup: 48 h; 3.16 µM
result.type: apoptotic fraction of cells
One number for each entry.

Cn1cnc2c(F)c(Nc3ccc(Br)cc3Cl)c(C(=O)NOCCO)cc21 : 0.269
CN(C)CCOc1ccc(-c2nc(-c3ccncc3)c(-c3ccc4c(c3)CC/C4=N\O)[nH]2)cc1 : 0.131
Cc1ccc(NC(=O)c2cccc(C(C)(C)C#N)c2)cc1Nc1ccc2ncn(C)c(=O)c2c1 : 0.379

Working through the 2 compounds below one at a time, give apoptotic fraction of cells for each.
1. CCCS(=O)(=O)Nc1ccc(F)c(C(=O)c2c[nH]c3ncc(Cl)cc23)c1F
2. CCCS(=O)(=O)Nc1ccc(F)c(C(=O)c2c[nH]c3ncc(-c4ccc(Cl)cc4)cc23)c1F

1. 0.122
2. 0.116
